Entries and their EC50 values follow.
Assayed system: T1, human mutCALR on BaF3 cells stably expressing human MPL and human mutCALR (MPL-mutCALR cells) (human)
T1 construct: also called mutant calreticulin
T1 chain: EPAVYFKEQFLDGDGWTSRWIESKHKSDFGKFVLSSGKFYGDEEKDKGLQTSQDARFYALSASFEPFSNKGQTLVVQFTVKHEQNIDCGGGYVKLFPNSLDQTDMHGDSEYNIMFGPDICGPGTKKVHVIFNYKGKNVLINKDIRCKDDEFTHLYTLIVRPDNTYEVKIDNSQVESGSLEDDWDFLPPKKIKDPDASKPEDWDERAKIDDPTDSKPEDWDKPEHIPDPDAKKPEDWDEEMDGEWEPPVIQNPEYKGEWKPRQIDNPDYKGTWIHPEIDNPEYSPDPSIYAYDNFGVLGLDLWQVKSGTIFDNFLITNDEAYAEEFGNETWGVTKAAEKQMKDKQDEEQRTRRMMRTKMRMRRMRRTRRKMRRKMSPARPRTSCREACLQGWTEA
Assay procedure: flow cytometry, BaF3 MPL-mutCALR cells
Description: On the day of the assay, cells were washed and resuspended in assay buffer. Approximately 200,000 cells/well were added to 96-well plates and stained with the indicated concentration of antibodies for 30 minutes on ice. Cells were then washed and stained with goat anti-human secondary conjugated to R-phycoerythrin (R-PE) (Jackson Immuno Research Laboratories) for 30 minutes on ice. The cells were then washed and analyzed by flow cytometry.
Quantity name: EC50 (ng/mL)

Binder	Quantity name	Test result
anti-mutCALR antibody clone 125 (antibody, human IgG1, lambda, N297A, V domains shown) VH: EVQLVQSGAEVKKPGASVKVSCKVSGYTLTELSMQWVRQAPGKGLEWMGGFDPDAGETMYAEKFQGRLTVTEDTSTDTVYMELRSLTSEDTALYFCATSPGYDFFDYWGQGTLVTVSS VL: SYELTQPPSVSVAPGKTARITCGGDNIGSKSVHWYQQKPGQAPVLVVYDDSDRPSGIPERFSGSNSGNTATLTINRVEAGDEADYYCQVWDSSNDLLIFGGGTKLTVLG	EC50	2.1
anti-mutCALR antibody clone 59 (antibody, human IgG1, lambda, N297A, V domains shown) VH: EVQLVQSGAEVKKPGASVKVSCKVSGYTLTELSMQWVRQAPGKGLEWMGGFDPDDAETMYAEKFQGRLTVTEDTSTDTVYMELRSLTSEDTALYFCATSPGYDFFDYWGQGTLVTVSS VL: QSALTQPASVSGSPGQSITISCTGTSSDVGGYNYVSWYQQHPGKAPKLMIYEVSNRPSGVSNRFSGSNSGNTATLTINRVEAGDEADYYCQVWDSSNDLLIFGGGTKLTVLG	EC50	7.7
anti-mutCALR antibody clone 32 (antibody, human IgG1, lambda, V domains shown, human IgG1) VH: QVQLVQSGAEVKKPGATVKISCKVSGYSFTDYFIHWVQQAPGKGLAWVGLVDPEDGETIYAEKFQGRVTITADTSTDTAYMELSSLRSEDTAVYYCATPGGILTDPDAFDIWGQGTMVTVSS VL: QSALTQPASVSGSPGQSITISCTGTSSDVGGYNYVSWYQQHPGKAPKLMIYEVSNRPSGVSNRFSGSKSGNTASLTISGLQAEDEADYYCSSYTSSSTPYVFGTGTKVTVLG	EC50	10
anti-mutCALR antibody clone 186 (antibody, human IgG1, lambda, N297A, V domains shown) VH: EVQLVQSGAEVKKPGASVKVSCKVSGYTLTELSMQWVRQAPGKGLEWMGGFDPDAGETMYAEKFQGRLTVTEDTSTDTVYMELSSLRSEDTAVYFCATSPGYDFFDYWGQGTLVTVSS VL: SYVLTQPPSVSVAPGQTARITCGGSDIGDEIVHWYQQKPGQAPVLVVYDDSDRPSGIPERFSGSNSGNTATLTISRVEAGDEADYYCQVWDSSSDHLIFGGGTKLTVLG	EC50	3.9
anti-mutCALR antibody clone 179 (antibody, human IgG1, lambda, N297A, V domains shown) VH: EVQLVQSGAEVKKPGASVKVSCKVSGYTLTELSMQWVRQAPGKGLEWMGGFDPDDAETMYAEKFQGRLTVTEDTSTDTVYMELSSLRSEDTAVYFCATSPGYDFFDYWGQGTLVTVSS VL: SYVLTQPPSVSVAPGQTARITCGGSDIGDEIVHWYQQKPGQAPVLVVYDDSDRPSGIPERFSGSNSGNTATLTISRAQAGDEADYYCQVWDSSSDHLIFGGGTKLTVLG	EC50	5.8

Data credit: patent US20230272055A1
